Target: Env of the clade C HIV-1 pseudoviruses of the cross-clade 162-pseudovirus panel (n = 27)
Test: cell-based or functional assay
Measured Median IC50 against viruses neutralized with an IC50 <50 µg/ml by item
Note: unit µg/mL is implicit; provide only the numeric part.

Let me know recorded Median IC50 against viruses neutralized with an IC50 <50 µg/ml for PGT-125 (antibody, V domains shown) VH: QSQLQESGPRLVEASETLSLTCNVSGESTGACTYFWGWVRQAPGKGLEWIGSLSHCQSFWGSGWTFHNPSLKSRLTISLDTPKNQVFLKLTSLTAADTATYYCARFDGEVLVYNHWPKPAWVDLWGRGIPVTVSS VL: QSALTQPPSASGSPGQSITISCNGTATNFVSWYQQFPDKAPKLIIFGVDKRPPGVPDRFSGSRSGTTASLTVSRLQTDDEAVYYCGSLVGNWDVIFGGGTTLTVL , thanks. 1.83

Give Median IC50 against viruses neutralized with an IC50 <50 µg/ml for the following binder: PGT-123 (antibody, V domains shown) VH: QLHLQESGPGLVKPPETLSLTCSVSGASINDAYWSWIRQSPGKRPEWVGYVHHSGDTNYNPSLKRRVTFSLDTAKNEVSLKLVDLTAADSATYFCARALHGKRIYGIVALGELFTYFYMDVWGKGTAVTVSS VL: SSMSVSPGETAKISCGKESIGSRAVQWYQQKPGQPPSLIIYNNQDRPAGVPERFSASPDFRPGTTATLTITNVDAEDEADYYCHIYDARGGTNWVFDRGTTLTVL 0.01

For PGT-137 (antibody, V domains shown) VH: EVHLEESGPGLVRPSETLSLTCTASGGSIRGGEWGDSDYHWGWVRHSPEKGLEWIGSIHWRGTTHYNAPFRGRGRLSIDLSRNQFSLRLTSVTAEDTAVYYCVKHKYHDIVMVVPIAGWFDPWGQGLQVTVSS VL: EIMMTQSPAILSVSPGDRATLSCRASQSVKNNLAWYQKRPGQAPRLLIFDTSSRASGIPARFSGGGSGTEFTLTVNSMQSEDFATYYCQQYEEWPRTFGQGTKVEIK , write its Median IC50 against viruses neutralized with an IC50 <50 µg/ml. 0.23
